Hello, the source for this data is patent US11590116B2, in case you need it.

Target: recombinant human ALK5 (TGF-βR1) protein (Homo sapiens, UniProt P36897)
Construct: purchased Life Technologies PR9075A
Sequence (P36897 34-503): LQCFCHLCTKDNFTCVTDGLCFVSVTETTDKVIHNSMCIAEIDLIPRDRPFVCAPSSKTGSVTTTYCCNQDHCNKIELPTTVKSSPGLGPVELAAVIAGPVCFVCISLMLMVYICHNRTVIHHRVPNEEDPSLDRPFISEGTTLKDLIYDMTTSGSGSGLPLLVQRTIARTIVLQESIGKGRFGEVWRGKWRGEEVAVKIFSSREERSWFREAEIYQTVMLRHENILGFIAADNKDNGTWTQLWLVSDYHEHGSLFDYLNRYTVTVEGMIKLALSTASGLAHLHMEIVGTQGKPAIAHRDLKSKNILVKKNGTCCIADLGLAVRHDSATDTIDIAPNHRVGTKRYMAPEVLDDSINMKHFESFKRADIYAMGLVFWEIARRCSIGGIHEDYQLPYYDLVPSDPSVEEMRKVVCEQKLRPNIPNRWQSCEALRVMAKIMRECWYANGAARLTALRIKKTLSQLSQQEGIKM
Assay: Biochemical ALK5 (TGF-βR1) assay to measure pKi (LANCE Ultra ULight kinase assay)
Conditions: apparent pKi from pIC50 by Cheng-Prusoff, read-out: ALK5 pKi (converted)
REPORTED PROPERTY: Ki

Examples with answers:
{"MOLECULE": "Cc1cccc(-c2[nH]cnc2-c2ccc3ncc(C4=CCC(N)CC4)cc3n2)n1 (stereo not shown)", "RESULT": "< 0.0316 nM"}
{"MOLECULE": "Cc1cccc(-c2n[nH]cc2-c2ccc3ncc(NC(=O)CCCN4CCOCC4)cc3n2)n1", "RESULT": "0.0398 to 0.316 nM"}
{"MOLECULE": "Cc1cccc(-c2[nH]cnc2-c2ccc3ncc(C(=O)O[C@H]4CC[C@H](N)CC4)cc3c2)n1", "RESULT": "0.0398 to 0.316 nM"}

The record that follows has no Ki shown yet.
State measured Ki of the molecule "COC(=O)[C@H]1CCCCN1CCNc1cnc2ccc(-c3nc[nH]c3-c3cccc(C)n3)cc2c1" with recombinant human ALK5 (TGF-βR1) protein (Homo sapiens, UniProt P36897). 0.0398 to 0.316 nM
